# Experimental target: human BACE1 (Homo sapiens)
# Sequence (P56817 46-501): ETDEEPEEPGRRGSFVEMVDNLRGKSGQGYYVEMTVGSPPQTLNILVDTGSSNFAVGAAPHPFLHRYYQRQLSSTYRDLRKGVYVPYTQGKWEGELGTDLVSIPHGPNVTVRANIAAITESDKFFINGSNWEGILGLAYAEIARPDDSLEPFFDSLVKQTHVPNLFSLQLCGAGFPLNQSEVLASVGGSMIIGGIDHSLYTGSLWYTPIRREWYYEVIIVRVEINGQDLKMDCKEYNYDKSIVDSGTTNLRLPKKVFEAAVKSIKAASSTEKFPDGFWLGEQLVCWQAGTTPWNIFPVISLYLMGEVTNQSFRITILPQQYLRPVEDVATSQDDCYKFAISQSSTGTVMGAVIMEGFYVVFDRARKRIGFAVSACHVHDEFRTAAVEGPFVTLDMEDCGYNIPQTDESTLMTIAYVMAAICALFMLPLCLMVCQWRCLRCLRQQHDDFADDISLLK
# Test protocol: BACE1 efficacy assay (FRET-based, commercial BACE1 kit)
# Assay type: biochemical
# Parameters: purchased Life Technologies P2985
# Reported conditions: 10 μM test compound
Result type: inhibition at 10 µM (%)

> print(dat)
                            molecular.string  result.units  test.value
 1  COc1cnc(C(=O)Nc2cc(F)c(F)c([C@]34COC[C@H]3C[C@@](F)(CF)C(N)=N4)c2)cn1             %         103
 2  C[C@@]1(F)C[C@]2(F)COC[C@]2(c2cc(NC(=O)c3ccc(F)cn3)ccc2F)N=C1N             %         103
 3  NC1=N[C@@]2(c3cc(NC(=O)c4ccc(F)cn4)ccc3F)COC[C@H]2C[C@]1(F)CF             %         110
 4  COc1cnc(C(=O)Nc2ccc(F)c([C@]34COC[C@@]3(F)C[C@@](C)(F)C(N)=N4)c2)cn1             %         104
 5  COc1ccc(C(=O)Nc2ccc(F)c([C@]34COC[C@H]3C[C@](F)(CF)C(N)=N4)c2)nc1             %         111
 6  COc1ccc(C(=O)Nc2ccc(F)c([C@]34COC[C@H]3C[C@@](F)(CF)C(N)=N4)c2)nc1             %         103
 7  COc1cnc(C(=O)Nc2cc(F)c(F)c([C@]34COC[C@H]3C[C@](F)(CF)C(N)=N4)c2)cn1             %         105
 8  NC1=N[C@@]2(c3cc(NC(=O)c4ccc(F)cn4)ccc3F)COC[C@H]2C[C@@]1(F)CF             %         103
 9  COc1ccc(C(=O)Nc2cc(F)c(F)c([C@]34COC[C@H]3C[C@](F)(CF)C(N)=N4)c2)nc1             %         105
10  [2H]C([2H])([2H])Oc1ccc(C(=O)Nc2ccc(F)c([C@]34COC[C@H]3C[C@@](F)(CF)C(N)=N4)c2)nc1             %          99
11  NC1=N[C@@]2(c3cc(NC(=O)c4ccc(F)cn4)cc(F)c3F)COC[C@H]2C[C@@]1(F)CF             %         103
